Target: human norepinephrine transporter (Homo sapiens, UniProt P23975)
Sequence (P23975 whole entry): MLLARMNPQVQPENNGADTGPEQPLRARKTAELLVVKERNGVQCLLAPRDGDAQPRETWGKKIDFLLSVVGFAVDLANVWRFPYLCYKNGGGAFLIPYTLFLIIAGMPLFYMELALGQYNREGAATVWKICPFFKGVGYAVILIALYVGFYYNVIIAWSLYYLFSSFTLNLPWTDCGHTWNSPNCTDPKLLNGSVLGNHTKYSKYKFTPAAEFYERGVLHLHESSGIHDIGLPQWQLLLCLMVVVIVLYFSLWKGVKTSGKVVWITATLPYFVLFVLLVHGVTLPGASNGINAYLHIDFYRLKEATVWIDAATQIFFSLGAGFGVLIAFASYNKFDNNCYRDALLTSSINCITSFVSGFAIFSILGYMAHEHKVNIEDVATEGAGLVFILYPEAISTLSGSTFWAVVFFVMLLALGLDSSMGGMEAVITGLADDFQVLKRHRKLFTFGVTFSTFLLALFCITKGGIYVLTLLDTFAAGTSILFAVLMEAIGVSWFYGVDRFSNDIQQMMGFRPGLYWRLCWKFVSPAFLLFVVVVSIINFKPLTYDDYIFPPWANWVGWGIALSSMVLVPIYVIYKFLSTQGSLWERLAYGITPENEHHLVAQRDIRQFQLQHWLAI
Counter-ions that a name gives are not always drawn.
# Ki listing for each entry below

| MOLECULE | EXPERIMENTAL SYSTEM | QUALIFIER OPERATOR | Ki (µM) |
| --- | --- | --- | --- |
| Fc1ccc(Cl)c(-c2ccccc2CO[C@H]2CCNC2)c1 [Example D-18] | human norepinephrine transporter (Homo sapiens, UniProt P23975) | = | 0.102 |
| Fc1cc(F)cc(-c2ccc(F)cc2CO[C@H]2CCNC2)c1 [Example D-86] | human norepinephrine transporter (Homo sapiens, UniProt P23975) | = | 0.278 |
| Fc1cccc(-c2ccccc2CO[C@H]2CCNC2)c1F.O=C(O)/C=C/C(=O)O [Example A-6, fumarate] | human norepinephrine transporter (Homo sapiens, UniProt P23975) | = | 0.0129 |
| FC(F)(F)Oc1ccccc1-c1ccccc1CO[C@H]1CCNC1 [Example D-37] | human norepinephrine transporter (Homo sapiens, UniProt P23975) | = | 1 |
| COc1ccc(C(C)C)cc1-c1ccccc1CO[C@H]1CCNC1 [Example D-49] | human norepinephrine transporter (Homo sapiens, UniProt P23975) | = | 4.23 |
| c1ccc(-c2ccccc2CO[C@H]2CCNC2)cc1 [Example A-7, hydrochloride] | human norepinephrine transporter (Homo sapiens, UniProt P23975) | = | 0.0135 |
| Fc1ccccc1-c1ccccc1CO[C@@H]1CCNC1 [Example A-16, fumarate] | human norepinephrine transporter (Homo sapiens, UniProt P23975) | = | 0.0899 |
| NC(=O)c1cccc(-c2ccc(F)cc2CO[C@H]2CCNC2)c1 [Example D-117] | human norepinephrine transporter (Homo sapiens, UniProt P23975) | ≥ | 10 |
| Cl.Fc1ccc(-c2cccc(F)c2F)c(CO[C@H]2CCNC2)c1 [Example A-4, hydrochloride] | human norepinephrine transporter (Homo sapiens, UniProt P23975) | = | 0.0112 |
| Fc1ccc(-c2ccc(C(F)(F)F)cc2)c(CO[C@H]2CCNC2)c1 [Example D-79] | human norepinephrine transporter (Homo sapiens, UniProt P23975) | = | 6.78 |
| CC(C)Oc1ccccc1-c1ccccc1CO[C@H]1CCNC1 [Example A-19, fumarate] | human norepinephrine transporter (Homo sapiens, UniProt P23975) | = | 0.111 |
| CSc1ccccc1-c1ccccc1CO[C@H]1CCNC1 [Example A-21, hydrochloride] | human norepinephrine transporter (Homo sapiens, UniProt P23975) | = | 0.61 |
| COc1ccc(Cl)cc1-c1ccc(F)cc1CO[C@H]1CCNC1 [Example D-61] | human norepinephrine transporter (Homo sapiens, UniProt P23975) | = | 0.993 |
| c1ccc(-c2cccc3ncccc23)c(CO[C@H]2CCNC2)c1 [Example D-122] | human norepinephrine transporter (Homo sapiens, UniProt P23975) | = | 0.659 |
| FC(F)(F)c1cccc(-c2ccccc2CO[C@H]2CCNC2)c1 [Example A-18, hydrochloride] | human norepinephrine transporter (Homo sapiens, UniProt P23975) | = | 0.103 |
| Cc1cc(C)n(-c2cccc(-c3ccccc3CO[C@H]3CCNC3)c2)n1 [Example D-59] | human norepinephrine transporter (Homo sapiens, UniProt P23975) | ≥ | 10 |
